The following binders are listed with their measured Assay (I) Glucagon [EC50] values.
Assayed Target: glucagon receptor (human, UniProt P47871 26-477)
Sequence (P47871 26-477): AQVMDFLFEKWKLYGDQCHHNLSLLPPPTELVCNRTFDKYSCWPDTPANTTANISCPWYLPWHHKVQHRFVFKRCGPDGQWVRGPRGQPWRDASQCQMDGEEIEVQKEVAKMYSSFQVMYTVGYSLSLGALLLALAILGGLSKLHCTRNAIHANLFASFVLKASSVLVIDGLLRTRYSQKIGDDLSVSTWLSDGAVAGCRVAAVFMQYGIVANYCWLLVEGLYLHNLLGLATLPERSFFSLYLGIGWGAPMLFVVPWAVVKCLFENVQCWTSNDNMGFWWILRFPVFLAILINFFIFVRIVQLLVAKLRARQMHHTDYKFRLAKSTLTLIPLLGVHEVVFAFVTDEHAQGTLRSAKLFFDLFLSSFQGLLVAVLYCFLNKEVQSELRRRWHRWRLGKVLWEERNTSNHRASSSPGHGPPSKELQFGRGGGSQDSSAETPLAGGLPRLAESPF
Procedure Text: cell-based or functional assay
*1 amine or outer side, *2 acyl side, *3 side chain or, on linkers, in order; H or OH if unused. Where no end group is shown, it is not given here. Side-chain parts run from the residue outwards. The star is where a group is joined. X1 = 4‑(16-(1H-tetrazol-5-yl)hexadecanoylsulfamoyl)butanoyl, O=C(CCCCCCCCCCCCCCCc1nnn[nH]1)NS(=O)(=O)CCCC(=O)*; C18 diacid = O=C(O)CCCCCCCCCCCCCCCCC(=O)*; C16 diacid = O=C(O)CCCCCCCCCCCCCCC(=O)*; γGlu = O=C(O)[C@H](CCC(=O)[*:2])N[*:1]; AEEA = NCCOCCOCC(=O)O
Please state the number and follow it with the unit.

{"Binder": "HSQGTFTSDYSKYLESRRAQDFVK([γGlu-AEEA-AEEA-γGlu-C18 diacid])WLLNV", "Measured": "0.92 nM"}

Suppose we examine the binder HSQGTFTSDYSRYLESRRAQEFVK([γGlu-γGlu-γGlu-γGlu-C18 diacid])WLLST ; what Assay (I) Glucagon [EC50] value has been reported?
0.148 nM

// same read-out, input: HSQGTFTSDYSKYLESRRAQDFVK([γGlu-γGlu-AEEA-γGlu-X1])WLLST
0.362 nM

// same read-out, input: HSQGTFTSDYSKYLESRRAQDFVK([γGlu-γGlu-AEEA-AEEA-γGlu-C16 diacid])WLLST
0.071 nM

// same read-out, input: HSQGTFTSDYSKYLDTRRAQDFVK([γGlu-γGlu-AEEA-AEEA-γGlu-C16 diacid])WLLST
0.017 nM

All figures here come from patent US20130079278A1.
